From: paper PMC5540273

# System: LIMK2
# Condition: concentration: 1 μM, replicates: in singlicate; n = 1;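 further: KINOMEscan kinase panel screen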
Listed next: entries and their corresponding %Inh.

| Smiles Code | Display Unit | %Inh |
| --- | --- | --- |
| CCc1nc(-c2cccc(C)c2)c(-c2ccnc(NCc3ccccc3)c2)s1 | % | 0 |
| NS(=O)(=O)c1cccc(-c2ccc3ncc(N4CCOCC4)nc3c2)c1 | % | 15 |
| Cc1c2ccc(N(C)c3ccnc(Nc4cccc(S(N)(=O)=O)c4)n3)cc2nn1Cc1ccccc1.Cl.Cl | % | 73 |
| [2H]C([2H])(c1cccc(C(F)(F)F)c1C)n1ccn2c(=O)nc(N3CCOCC3)cc12 | % | 0 |
| Cn1cc(-c2ccc3c(c2)CCN3C(=O)Cc2ccccc2Cl)c2c(N)ncnc21 | % | 6 |
| CN(C1=C(c2ccccc2)C(=O)NC1=O)c1ccccc1 | % | 20 |
| CC(C)Oc1ccc2c(-c3ccnc(Nc4ccc(N5CCN(C)CC5)cc4)n3)cnn2n1 | % | 100 |
| NS(=O)(=O)c1cccc(-c2ccc3nccc(-c4cccc(S(N)(=O)=O)c4)c3c2)c1 | % | 0 |

----------
# Tested on: AAK1
# Condition: concentration: 1 μM, replicates: in singlicate; n = 1
Reported Endpoint: %Inh (%)

| Molecule | Display Unit | Observed Result |
| --- | --- | --- |
| COc1cc2c(cc1OCCN1CCN(C)CC1)ncc1c3ccc(C#N)cc3[nH]c21 | % | 96.2 |
| O=C(NCCNc1ccnc(Nc2ccc(F)cc2)n1)Nc1ccccc1F | % | 0 |
| Cl.Nc1ncnc2occ(-c3ccc(NC(=O)Nc4cc(C(F)(F)F)ccc4F)cc3)c12 | % | 0 |
| COc1ccc(COc2cc(-n3cnc4ccccc43)sc2C(N)=O)cc1 | % | 29 |
| CN(C(=O)c1ccc(-c2cc(-c3c[nH]nc3-c3ccccn3)ccn2)cc1)C1CCOCC1 | % | 0 |
| C[C@@H](Oc1cc(-n2cnc3ccc(NC(=O)NC(C)(C)C)cc32)sc1C(N)=O)c1ccccc1Cl | % | 15 |
| Cc1cccc(Cn2ccn3c(=O)cc(N4CCOCC4)nc23)c1 | % | 15 |
| O=C1Cc2cc(Nc3nc(NCc4cccc(S(=O)(=O)C(F)(F)F)c4)ncc3C(F)(F)F)ccc2N1 | % | 8 |
| CCn1cnc2c(N)ncnc21 | % | 0 |
| N#Cc1ccc(-c2cc(-c3c[nH]nc3-c3ccccn3)ccn2)cc1 | % | 0 |
| [2H]C([2H])(c1cccc(C(F)(F)F)c1C)n1ccn2c(=O)nc(N3CCOCC3)cc12 | % | 0 |
| COc1ccc(Nc2ncc(C#N)c(Nc3ccccc3C(N)=O)n2)cc1N1CCN(C)CC1.Cl | % | 97.2 |
| O=C(c1ccc(-c2cc(-c3c[nH]nc3-c3ccccn3)ccn2)cc1)N1CCOCC1 | % | 0 |
| CC(C)(CN)c1nc(-c2ccc(Cl)c(O)c2)c(-c2ccncc2)[nH]1.O=C(O)C(F)(F)F | % | 0 |
| O=c1cc(N2CCOCC2)nc2n(Cc3cccc(F)c3)ccn12 | % | 5 |
| CN(C1=C(c2ccccc2)C(=O)NC1=O)c1ccccc1 | % | 7 |
| COC(=O)Nc1nc2cc(Oc3ccc(NC(=O)Nc4cc(F)ccc4F)cc3)ccc2[nH]1.Cl | % | 30 |
| Cc1nnc(-c2ccc3occ(-c4ccc(C(C)O)cc4)c3c2)o1 (stereo not drawn) | % | 23 |
| Cc1cccc(-c2nc(Nc3ccc4ncsc4c3)c3ccccc3n2)n1 | % | 7 |
| O=c1cc(N2CCOCC2)nc2n(Cc3cccc(C(F)(F)F)c3)ccn12 | % | 0 |
| Cc1nnc(-c2ccc3ncc(-c4ccc(S(C)=O)cc4)n3c2)o1 (stereo not drawn) | % | 41 |
| Cc1ccc(C(=O)NCC(N)=O)cc1-n1c(C)cc(OCc2ccc(F)cc2F)c(Br)c1=O | % | 0 |
| Cc1c2ccc(N(C)c3ccnc(Nc4cccc(S(N)(=O)=O)c4)n3)cc2nn1Cc1ccccc1.Cl.Cl | % | 2 |
| CC(=O)Nc1ccc(COc2ccc(Nc3ccnc4cc(-c5ccccn5)ccc34)cc2)cc1.Cl | % | 13 |
| Nc1nccc(-c2c(-c3ccc(F)cc3)ncn2C2CCN(CC(F)(F)F)CC2)n1 | % | 5 |
| COc1cc(Nc2nccc(N3CCC(NC(=O)c4cccc(NC(C)=O)c4)C3)n2)cc(OC)c1OC (stereo not drawn) | % | 76 |
| N#Cc1c(N2CCOCC2)sc(-c2ccn[nH]2)c1-c1ccc(Cl)cc1 | % | 70 |
| COCCNC(=O)c1ccc(-c2cc(C(=O)NC3CC3)cc(F)c2C)cc1 | % | 0 |
| CN1c2ccc(CNc3ccc(F)cc3)cc2-c2c(cnn2C)S1(=O)=O | % | 0 |
| Cl.Oc1cccc(Nc2ccnc3cc(-c4ccncc4)ccc23)c1 | % | 42 |

----------
Listed next: entries and their corresponding %Inh.
# Tested on: WNK2
# Condition: concentration: 1 μM, replicates: in singlicate; n = 1
Reported Endpoint: %Inh (%)

| Smiles Code | Reported Endpoint | Display Unit | Observed Result |
| --- | --- | --- | --- |
| O=c1cc(N2CCOCC2)nc2n(Cc3cccc(F)c3)ccn12 | %Inh | % | 12 |
| C[C@@H](Oc1cc(-n2cnc3ccc(NC(=O)NC(C)(C)C)cc32)sc1C(N)=O)c1ccccc1Cl | %Inh | % | 25 |
| Cl.Oc1cccc(Nc2ccnc3cc(-c4ccncc4)ccc23)c1 | %Inh | % | 13 |
| CC(C)(C)n1cnc2c(N)ncnc21 | %Inh | % | 25 |
| CN1c2ccc(NCc3ccc(F)cc3)cc2-c2c(cnn2C)S1(=O)=O | %Inh | % | 5 |
| O=C(Nc1n[nH]c2cc(-c3cccc(F)c3)ccc12)C1CC1 | %Inh | % | 0 |
| O=C(c1ccc(-c2cc(-c3c[nH]nc3-c3ccccn3)ccn2)cc1)N1CCOCC1 | %Inh | % | 9 |
| c1ccc(-c2cc(-c3c[nH]nc3-c3ccccn3)ccn2)cc1 | %Inh | % | 18 |
| COc1ccc(Nc2ncc(C#N)c(Nc3ccccc3C(N)=O)n2)cc1N1CCN(C)CC1.Cl | %Inh | % | 31 |

----------
Listed next: entries and their corresponding %Inh.
# System: p38-alpha
# Construct: gene MAPK14
# Condition: concentration: 1 μM, replicates: in singlicate; n = 1

| Compound | Target Or System | %Inh, % |
| --- | --- | --- |
| O=C(NCCNc1ccnc(Nc2ccc(F)cc2)n1)Nc1ccccc1F | p38-alpha | 0 |
| COc1ccc(CNC(=O)NC2CCN(c3ccnc(Nc4ccc(OC)cc4)n3)C2)cc1 (centres unmarked) | p38-alpha | 11 |
| Cc1nnc(-c2ccc(C)c(-c3ccc(C(=O)Nc4ccc(NS(C)(=O)=O)cc4)cc3)c2)o1 | p38-alpha | 99.7 |
| Nc1nccc(-c2c(-c3ccc(F)cc3)ncn2C2CCN(CC(F)(F)F)CC2)n1 | p38-alpha | 96.6 |
| NCC(NC(=O)c1cc(-c2cn[nH]c2)c(-c2ccnc3[nH]ccc23)s1)c1ccccc1.O=C(O)C(F)(F)F.O=C(O)C(F)(F)F (centres unmarked) | p38-alpha | 10 |
| Cc1ccc(NC(=O)c2ccnc(N3CCN(C)CC3)c2)cc1-c1ccc(C(=O)NCC2CC2)cc1 | p38-alpha | 32 |
| Cc1cccc(-c2nc(-c3ccc(S(C)(=O)=O)cc3)sc2-c2ccncc2)c1 | p38-alpha | 92.4 |
| c1ccc(-c2cc(-c3c[nH]nc3-c3ccccn3)ccn2)cc1 | p38-alpha | 47 |

----------
# Tested on: STK16
# Condition: concentration: 1 μM, replicates: in singlicate; n = 1
Reported Endpoint: %Inh (%)

| Compound | Observed Result |
| --- | --- |
| Nc1nccc(-c2c(-c3ccc(F)cc3)ncn2C2CCN(CC(F)(F)F)CC2)n1 | 0 |
| CN1c2ccc(NCc3ccc(F)cc3)cc2-c2c(cnn2C)S1(=O)=O | 0 |
| O=C(NCCCN1CCOCC1)c1cccc(Nc2nccc(Nc3ccc(Oc4ccccc4)cc3)n2)c1 | 64 |
| CC(=O)Nc1ccc(COc2ccc(Nc3ccnc4cc(-c5ccccn5)ccc34)cc2)cc1.Cl | 23 |
| COc1ccc(Nc2nccc(N3CCC(NC(=O)Nc4cccc(C(C)=O)c4)C3)n2)cc1 (centres unmarked) | 14 |

----------
# Tested on: EPHA3
# Condition: concentration: 1 μM, replicates: in singlicate; n = 1
Listed next: entries and their corresponding %Inh.

| Smiles Code | Target Or System | %Inh [%] |
| --- | --- | --- |
| C[C@@H](Oc1cc(-n2cnc3ccc(NC(=O)NC(C)(C)C)cc32)sc1C(N)=O)c1ccccc1Cl | EPHA3 | 26 |
| Nc1nccc(-c2c(-c3ccc(F)cc3)ncn2C2CCN(CC(F)(F)F)CC2)n1 | EPHA3 | 0 |
| CCc1ccnc(/C=C/c2n[nH]c3cc(Sc4ccccc4C(=O)NC)ccc23)c1 | EPHA3 | 0 |
| Cn1cc(-c2ccc3c(c2)CCN3C(=O)Cc2ccccc2Cl)c2c(N)ncnc21 | EPHA3 | 34 |
| COc1cc2c(cc1OCCN1CCN(C)CC1)ncc1c3ccc(C#N)cc3[nH]c21 | EPHA3 | 18 |
| COC(=O)Nc1nc2cc(Oc3ccc(NC(=O)Nc4cc(F)ccc4F)cc3)ccc2[nH]1.Cl | EPHA3 | 8 |
